Could you please report measured TGI for the items listed next?
# Test system: MALME-3M melanoma
# Assay procedure: NCI tumour cell line growth inhibition, 48 h
Give a bare numeral; the unit µM is implied.

Report TGI, nothing else, for this compound: CCN(CC)CCCNCc1cc(-c2ccccc2)nc2ccccc12
24.3

Fill in reported TGI for this entry: O=C(Nc1ccc(-n2ccc3c(NC(=O)c4ccccc4)ncnc32)cc1)Nc1ccc(Cl)c(Cl)c1
12

Retrieve TGI measured for NCCOCCOCCNc1nc(-c2ccccc2)nc(N2CCN(c3ccccn3)CC2)n1 and print it.
26.2

* * *

Would you mind telling me the reported TGI of each entry?
# Test system: TK-10 renal
# Assay procedure: NCI tumour cell line growth inhibition, 48 h

Fetch value of TGI on TK-10 renal for CCOC(=O)c1cc2/c(=C\c3ccc(N(C)C)cc3)c3ccccc3n2[n+]1C .
21.9 µM

Fetch value of TGI on TK-10 renal for CCOC(=O)N1CCC(=O)C(CNC23CC4CC(CC(C4)C2)C3)C1 (stereo unspecified) .
> 100 µM

Give TGI for CCC(=C/[C@H](C)C/C=C/C(C)=C/[C@@H](C)C(=O)[C@@H](C)[C@H](O)[C@@H](C)CC)/C=C/[C@@H]1OC(=O)C=C[C@H]1C tested on TK-10 renal.
1.52 µM

Give TGI for this entry on TK-10 renal: Nc1nnnn1CCO
> 100 µM

Write down the reported TGI (system: TK-10 renal) of COc1ccc(Cc2nnc(Nc3ccc(Br)cc3)[nH]c2=O)cc1OC
> 100 µM

Lab note: record TGI of O=C1CSC(c2ccccc2[N+](=O)[O-])N1c1ccc(-c2ccc(-n3c(-c4ccccc4)nc4ccccc4c3=O)cc2)cc1 (stereo unspecified) tested on TK-10 renal.
> 100 µM

Provide TGI, tested on TK-10 renal, for C/C1=C/C(=O)O[C@@H]2C[C@@H](CC[C@H](C)/C=C\C=C\CC1)O[C@@](O)([C@@H]1CSC(=O)N1)C2 .
1.01 µM

# lookup: TK-10 renal TGI, key = O=C(NCCCO)c1cc(Cl)ccc1O
15.1 µM

Specify the recorded TGI for [N-]=[N+]=NCCCCCC(=O)OC(C(=O)c1ccccc1)c1cccc(OCC(=O)NCCOCCOCCNC(=O)CCCC[C@@H]2SC[C@@H]3NC(=O)N[C@@H]32)c1 (stereo partly specified) , system: TK-10 renal.
> 100 µM

# return TGI for CC(=O)C1C(c2ccc(N(C)C)cc2)c2cc3c(cc2OC1(C)O)OCO3 (stereo unspecified) , test system: TK-10 renal
> 100 µM

Give TGI only, for CCN(CC)CCCNCc1cc(-c2ccccc2)nc2ccccc12 , using TK-10 renal data.
31.8 µM

For TK-10 renal, give TGI of the listed compound: CC(C)[C@H](NC(=O)[C@H](N)Cc1ccc(N(CCCl)CCCl)cc1)C(=O)O
> 100 µM

Give TGI for this entry on TK-10 renal: COc1ccc2ccccc2c1C1NC(=O)c2ccccc2N1 (stereo unspecified)
> 100 µM

GET TGI | system: TK-10 renal | item: CN(Cc1ccccc1)c1ccc(CO)c(Cl)c1
1.01 µM

Check TK-10 renal data and give TGI for CC(C)NC(=O)N(Nc1ccccc1)C(C)(C)C .
> 100 µM

System TK-10 renal. Read-out TGI. Item COc1cc(C2c3cc4c(cc3OC(NNS(=O)(=O)c3ccc(C)cc3)C2C)OCO4)cc(OC)c1O (stereo unspecified) . Report value.
39.9 µM

Fetch value of TGI on TK-10 renal for COc1ccc(N2C(=O)C3c4[nH]c5ccc(Br)cc5c4C4CCC(C(C)(C)C)CC4C3C2=O)cc1 (stereo unspecified) .
> 100 µM

Fill in: TGI on TK-10 renal, entry COc1cc(-c2cc(=O)c3c(O)c(CC=C(C)C)c(O)cc3o2)ccc1O
> 50 µM

Quote TGI with test system TK-10 renal for NCCCC[C@H](N)C(=O)Nc1ccc(-c2nc3ccccc3s2)cc1
> 100 µM

Provide the reported TGI (system: TK-10 renal) for Clc1ccc(-c2c3c(nn2-c2ccccn2)CCc2ccccc2-3)cc1Cl
> 100 µM

Tell me its TGI on TK-10 renal: CCOC(=O)C1c2[nH]c3ccccc3c2CCN1C(=O)c1ccc(OC)o1 (stereo unspecified)
> 10 µM

Determine reported TGI for COc1ccccc1-c1cc(=O)c2cc3c(cc2[nH]1)OCO3 ; test system: TK-10 renal.
> 100 µM

Please report the measured TGI for Cn1c2c(c3ccc([N+](=O)[O-])cc3c1=O)C(=O)c1ccccc1-2 tested on TK-10 renal.
> 100 µM

Enter TGI (test system TK-10 renal) for C[C@]12CC/C(=N\O)C=C1CC[C@@H]1C2CC[C@@]2(C)C1CC[C@@H]2OC1CCCCO1 (stereo partly specified)
42.2 µM

Using TK-10 renal as the test system, report measured TGI of CC(C)C(=O)Nc1cc(C(F)(F)F)ccc1[N+](=O)[O-] .
> 100 µM

Give TGI for this entry on TK-10 renal: NC(=O)/N=C1/CCC2C3CCCC2C13
> 100 µM

Report TGI under test system TK-10 renal for Oc1ccc2ccccc2c1N=Nc1ccsc1 .
> 100 µM

Look up TK-10 renal data: TGI of C=C1CCC2C3(C)COC(c4ccccc4)OC3CCC2(C)C1/C=C/C1=CCOC1=O (stereo unspecified) , then report it.
34 µM

Check TK-10 renal data and give TGI for C/C(=N\NS(=O)(=O)c1ccc(C)cc1)P(=O)(O)O .
> 100 µM

Enter TGI (test system TK-10 renal) for CC1=C(O)C(=O)C2C(=O)C1C1Cc3ccccc3C21 (stereo unspecified)
> 100 µM

// fetch TGI; item: N#Cc1c(-c2ccc(Cl)cc2)[nH]c(=O)n(C2OC(CO)C(O)C(O)C2O)c1=O (stereo unspecified) ; system: TK-10 renal
> 100 µM
